- System: Saccharomyces cerevisiae;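 note: PSI is a weighted mean of sequencing reads over stability bins, variants kept only with over 10 reads, mCherry proximal and sfGFP distal, peptide attached via GGGS linker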
- protocol.summary: protein stability index of tFT-peptide fusion (C-terminal peptide) (PSI (0-1 scale)); higher = more stable (slower turnover)
- applied.conditions: genetic background: das1 deletion; temperature: 37 C
// map protein stability index to label using I (below 0.5), II (0.5 to below 0.7), III (0.7 or more)

Check out these entries, answers already filled in.
{"primary.sequence": "LPPTPPLSPPPH", "tested.on": "Saccharomyces cerevisiae", "group.label": "II"}
{"primary.sequence": "VCVARICIWDFL", "tested.on": "Saccharomyces cerevisiae", "group.label": "II"}
{"primary.sequence": "TNEWMDVKVFCY", "tested.on": "Saccharomyces cerevisiae", "group.label": "II"}
{"primary.sequence": "VSGITLPFLMFH", "tested.on": "Saccharomyces cerevisiae", "group.label": "I"}
{"primary.sequence": "LNQRGKRKYLIM", "tested.on": "Saccharomyces cerevisiae", "group.label": "III"}

[ask] Which band does `GICLVLVSDIWI` fall in?
[reply] II

[ask] Same again, this time with `CFVRCFVSIRLF`
[reply] I
